System: rat liver mitochondria
Experiment: Respiration of isolated mitochondria fueled by glutamate and malate
Type: biochemical
Conditions: 20 μM
Reported State 4 respiration values are given for each entry in this list.
Respond with the bare value in nmol O2/min/mg Protein.

Worked set:
C[C@H]1[C@H](C)CC[C@]2(C(=O)O)CC[C@]3(C)C(=CC[C@@H]4[C@@]5(C)CC[C@H](O)C(C)(C)[C@@H]5CC[C@]43C)[C@H]12 [UA, ursolic acid, reference compound] :: 12.65
CC1(C)CCC2(C(=O)OCCCC[n+]3ccc(C=Cc4c[nH]c5ccccc45)cc3)CCC3(C)C(=CCC4C5(C)CCC(O)C(C)(C)C5CCC43C)C2C1 (stereo not shown) [OA-F16] :: 16.55
CC1(C)CC[C@]2(C(=O)O)CC[C@]3(C)C(=CC[C@@H]4[C@@]5(C)CC[C@H](O)C(C)(C)[C@@H]5CC[C@]43C)[C@@H]2C1 [OA, oleanolic acid, reference compound] :: 13.23

Then this molecule:
Any idea what its State 4 respiration is? The molecule is CC1CCC2(C(=O)OCCCC[n+]3ccc(C=Cc4c[nH]c5ccccc45)cc3)CCC3(C)C(=CCC4C5(C)CCC(O)C(C)(C)C5CCC43C)C2C1C (stereo not shown) [UA-F16]
19.06

====

Tested on: BT474 cells (human breast ductal carcinoma)
Experiment: MTT cytotoxicity assay, BT474
Assay type: cell-based
Conditions: BT-474, 48 h of treatment, mean ± SEM
pIC50: −log10 of the molar value.
Assign class by pIC50: not lower than 5 means yes (1); lower than 5 means no (0).

Solved entries (count: 4):
CC1CCC2(C(=O)OCCCC[n+]3ccc(C=Cc4c[nH]c5ccccc45)cc3)CCC3(C)C(=CCC4C5(C)CCC(O)C(C)(C)C5CCC43C)C2C1C (stereo not drawn) :: yes (1)
CC1(C)CCC2(C(=O)OCCCC[n+]3ccc(C=Cc4c[nH]c5ccccc45)cc3)CCC3(C)C(=CCC4C5(C)CCC(O)C(C)(C)C5CCC43C)C2C1 (stereo not drawn) :: yes (1)
CC1(C)CC[C@]2(C(=O)O)CC[C@]3(C)C(=CC[C@@H]4[C@@]5(C)CC[C@H](O)C(C)(C)[C@@H]5CC[C@]43C)[C@@H]2C1 [OA, oleanolic acid, reference compound] :: no (0)
C[C@H]1[C@H](C)CC[C@]2(C(=O)O)CC[C@]3(C)C(=CC[C@@H]4[C@@]5(C)CC[C@H](O)C(C)(C)[C@@H]5CC[C@]43C)[C@H]12 [UA, ursolic acid, reference compound] :: no (0)

Moving on to another compound below.
Say whether CC1CCC2(C(=O)OCCCC[n+]3ccc(C=Cc4c[nH]c5ccccc45)cc3)CCC3(C)C(=CCC4C5(C)CC(O)C(O)C(C)(C)C5CCC43C)C2C1C (stereo not drawn) shows pIC50 of 5 or more.
yes (1)

====

Tested on: rat liver mitochondria
Assay: Respiration of isolated mitochondria fueled by glutamate and malate
Type: biochemical
Settings: 20 μM
MEASUREMENT KIND: RC (state 3/state 4) (rel. un.)
Kindly provide the numeric value in rel. un. only, without the unit symbol.

Solved cases below.
CC1(C)CC[C@]2(C(=O)O)CC[C@]3(C)C(=CC[C@@H]4[C@@]5(C)CC[C@H](O)C(C)(C)[C@@H]5CC[C@]43C)[C@@H]2C1 [OA, oleanolic acid, reference compound] :: 2.11
CC1CCC2(C(=O)OCCCC[n+]3ccc(C=Cc4c[nH]c5ccccc45)cc3)CCC3(C)C(=CCC4C5(C)CCC(O)C(C)(C)C5CCC43C)C2C1C (stereo not shown) :: 1.02
C[C@H]1[C@H](C)CC[C@]2(C(=O)O)CC[C@]3(C)C(=CC[C@@H]4[C@@]5(C)CC[C@H](O)C(C)(C)[C@@H]5CC[C@]43C)[C@H]12 [UA, ursolic acid, reference compound] :: 2.13

Now examine the next entry.
Which RC (state 3/state 4) is reported for this compound? CC1(C)CCC2(C(=O)OCCCC[n+]3ccc(C=Cc4c[nH]c5ccccc45)cc3)CCC3(C)C(=CCC4C5(C)CCC(O)C(C)(C)C5CCC43C)C2C1 (stereo not shown)
1.03
